Study the reported pIC50 values for human HIF-PHD2 (Homo sapiens) given below; they originate from different publications.
pIC50: −log10 of the molar value.
Quantity Measured: pIC50

Worked examples, 2 molecules total:
CCC(C)(C)Cn1ncc2nc(-n3cc(C(=O)O)cn3)nc(O)c21: 6.96
CC(C)(CNC(=O)c1cc(O)c(C(=O)NC(c2ccccc2)c2ccccc2)cn1)C(=O)O: 8.44

A = COc1ccc(C(NC(=O)c2cnc(C(=O)NCCC(=O)O)nc2O)c2ccc(OC)cc2)cc1
B = CC(C)(C)[C@H]1CC[C@H](Cn2nc(Cl)c3nc(-n4cc(C(=O)O)cn4)nc(O)c32)CC1
Problem: I'm curious whether A or B has the smaller pIC50 number. Which is it? Mark your answer with the label of the selected entry.
Result: B
(B: 7.66, A: 9.15)

###

Study the reported IC50 values for human HIF-PHD2 (Homo sapiens, UniProt Q9GZT9) given below; they originate from different publications.
Quantity Measured: IC50 (nM)

1 = CC[C@H]1CC[C@H](n2ncc3nc(-n4cc(C(=O)O)cn4)nc(O)c32)CC1
2 = CS(=O)(=O)c1ccc(Cn2c3c(c(O)c(C(=O)NCC(=O)O)c2=O)COCC3)cc1
3 = CNC(=O)c1ccc(Cn2c3c(c(O)c(C(=O)NCC(=O)O)c2=O)COCC3)cc1
Problem: Put the compounds in ascending order of IC50. A complete answer lists every label in the requested sequence.
Result: 2, 3, 1

P = Cc1ccc([C@H](C)n2ncc3nc(-n4cc(C(=O)O)cn4)nc(O)c32)cc1C
Q = C[C@@H]1C[C@H](C)C[C@@H](n2ncc3nc(-n4cc(C(=O)O)cn4)nc(O)c32)C1
R = COc1ccc(C(NC(=O)c2cnc(C(=O)NCC(C)C(=O)O)nc2O)c2ccc3cc(OC)ccc3n2)cc1 (single isomer, unassigned)
Problem: Form: Sort by [IC50] Order [ ascending ] A complete answer lists every label in the requested sequence.
Result: R, Q, P
(R: 16 nM, Q: 24 nM, P: 44 nM)

1 = CC(c1cc(Cl)cc(Cl)c1)n1ncc2nc(-n3cc(C(=O)O)cn3)nc(O)c21 (single isomer, unassigned)
2 = O=C(O)c1cnn(-c2nc(O)c3c(cnn3CCCOc3ccc(C4CCCCC4)cc3)n2)c1
Problem: I'm curious whether 1 or 2 has the smaller IC50 number. Which is it? Mark your answer with the label of the selected entry.
Result: 2

###

Study the reported IC50 values for UniProtKB Q9GZT9 given below; they originate from different publications.

Worked examples, 5 molecules total:
O=C(O)c1cnn(-c2nc(O)c3c(cnn3[C@H]3CCc4ccccc43)n2)c1: 46 nM
CC1(C)C(=O)C(C(=O)NCC(=O)O)=C(O)c2ccc(C#Cc3cccnc3)cc21: < 100 nM
Cn1c(=O)c(C(=O)NCC(=O)O)c(O)c2cc(-c3cccnc3)c(C(F)(F)F)nc21: < 50 nM
CC1(Cn2ncc3nc(-n4cc(C(=O)O)cn4)nc(O)c32)CCCCC1: 40 nM
Cn1c(=O)c(C(=O)NCC(=O)O)c(O)c2ccc(N3CCC(C(F)(F)F)CC3)nc21: 500 to 1000 nM

Problem: Quick check: IC50 of `C[C@@H](c1ccc2c(c1)CCC2)n1ncc2nc(-n3cc(C(=O)O)cn3)nc(O)c21` ?
Result: 30 nM

Problem: Proceed to Cn1c(=O)c(C(=O)NCC(=O)O)c(O)c2cc(C3CCCCO3)cnc21 (single isomer, unassigned)
Result: 50 to 100 nM

Problem: Proceed to `COc1ccc2c(O)c(C(=O)NCC(=O)O)c(=O)n(C)c2n1`
Result: < 50 nM
